biological target: human IMPDH type II (Homo sapiens, UniProt P12268)

molecule | Ki
COc1c(C)c2c(c(O)c1CC=C(C)CCCOP(=O)(O)CP(=O)(O)OCC1OC(n3cnc4c(N)ncnc43)C(O)C1O)C(=O)OC2 (stereo not shown) | 300 nM
